Experiment: soluble on expression in E. coli; label from the status in PepcDB or PDB records
property: soluble on expression in E. coli

Worked examples follow.
1. MDHHHHHHHHASENLYFQGHMNLDLAYRSFVLGVAGHPQVERLIKHRAKGLVRRYVAGETLEEALKAAEALEREGVHAILDLLGEMVRTEEEARAFQRGLLELVWALAGKPWPKYISLKLTQLGLDLSEDLALALLREVLREAEPRGVFVRLDMEDSPRVEATLRLYRALREEGFSQVGIVLQSYLYRTEKDLLDLLPYRPNLRLVKGAYREPKEVAFPDKRLIDAEYLHLGKLALKEGLYVAFATHDPRIIAELKRYTEAMGIPRSRFEFQFLYGVRPEEQRRLAREGYTVRAYVPYGRDWYPYLTRRIAERPENLLLVLRSLVSG: soluble
2. MGSDKIHHHHHHLTIRVLAHLAGAHLDHAIALGLRSGLGDDWLRIGGLKLFADGSLGSESAHMLLPYEGRDHTGIAVIPPAEMQEIVTRANAHGISVVVHAIGDAANRSVLDAIAAARATAASLALPNRIEHCQILDPHDIPRFAELNVIASMQPIHCTADMVMAERLWGKRCATSYAWRSLRAAGATLAFGSDAPVETMDPWAGIHAAVTRQTTDGTPDGGWYPEQRLTLTEALEAYCIGPTIAGADAERRGRLIPGMFADLAVLNGDPFQMPVTHLHTLHAELTMVGGKIVFNRTSR: not soluble
3. MGSDKIHHHHHHMASFQSFGIPGQLEVIKKALDHVRVGVVITDPALEDNPIVYVNQGFVQMTGYETEEILGKNCRFLQGKHTDPAEVDNIRTALQNKEPVTVQIQNYKKDGTMFWNELNIDPMEIEDKTYFVGIQNDITKQKEYEKLLEDSLTEITALSTPIVPIRNGISALPLVGNLTEERFNSIVCTLTNILSTSKDDYLIIDLSGLAQVNEQTADQIFKLSHLLKLTGTELIITGIKPELAMKMNKLDANFSSLKTYSNVKDAVKVLPIM: not soluble
4. MRLIEQAIEKIESGQVTEGLTALEEAAKTANHEMKYTVAETYYELGHLDKAQAIIDELLMLYPDEGGLYTFAAEILIDLNKEDEAIEMLNEIKEQDPAFLQAQLLLADLYQLQSLDEVAEQKLLKAYEVAPDEPIISFGLGEFYLERGDYIKSIPHLKRAKHGGLTNDQVNVSLKLAEAYSGSGQFEEALPHYDEGLKQKLDPHGLFGYGYTAYLLGDYVLAIEQFQALKALDPDFYDPIPVFGEGFRRGKSFRGSNGCFKRGDDRGLEHHHHHH: soluble
5. MGSDKIHHHHHHMPTPADDLVVIGKIVSVYGIRGEVKVYSFTDPLDNLLDYRRWTLRRDGEIRQAELVRGRLHGKVLAAKLKGLDDREEARTFTGYEICIPRSELPSLEEGEYYWHQLEGLKVIDQGRQLLGVIDHLLETGANDVMVVKPCAGSLDDRERLLPYTGQCVLSIDLAAGEMRVDWDADF: soluble
6. MARPLKEGLDYFPLDVDADYDDKFQLIETLHGPTGFAIMIKLFMKIYSQNFYYKWTETEQILFAKRVNVDINTLKTVVNDCIKYDLFDNNLFSEFQILTSLGVQERYFTAIGRRKKQIVVLEYLLLDRPEVINLCPKIVFANINVVNDDINAEQEELMPALSAQTKGKESKVNESKAVVSEQEKLPEKIVKEKPTTTAYKFWEENVAITGLSEFDRELLKKLISLGGNELTVHAMKKAIELNRRRMKTVDTVLRGWLDNGVKTTAEADEQEKNWNGGAKKNARAEPAKQEIKISDQYNFGATRTD: not soluble
7. MNLITDETLVEPNLPTFEELTRVHDRKYLKSVRNPIKAAQIVEIPFVGCLPPCIIESKLLHPLRLQAGGTVLAANLALKHGWAINVGGGFHHASHSGGGGFCFYADITMAIFDLFDKKAIANAIVVDLDAHQVLEKTFERI: not soluble
8. MTSIGTGYDLSNSVFSPDGRNFQVEYAVKAVENGTTSIGIKCNDGVVFAVEKLITSKLLVPQKNVKIQVVDRHIGCVYSGLIPDGRHLVNRGREEAASFKKLYKTPIPIPAFADRLGQYVQAHTLYNSVRPFGVSTIFGGVDKNGAHLYMLEPSGSYWGYKGAATGKGRQSAKAELEKLVDHHPEGLSAREAVKQAAKIIYLAHEDNKEKDFELEISWCSLSETNGLHKFVKGDLLQEAIDFAQKEINGDDDEDEDDSDNVMSSDDENAPVATNANATTDQEGDIHLE: soluble

Give measured soluble on expression in E. coli for every item shown.
1. LVGDFERELGRLLSPFELEDLQKTLQEDQTDPDIVRAALREAVFNGKTSWNYINAILRNWRREGLTTLRQIEERKQAREDNQMKDLAISDDFKNAMNLWE
2. MGSDKIHHHHHHMNEKTTTAQKGAPRARVSATRVRSASRTPHATTVNPADLTVHNHPLARRHYRVATAAIEGFVDLVEHCVRVLIPGALIYARPRMGKTHAIDYLALHLGRNRGDILVLRMSCEYHRTDYEGAFFSALLSAAGIRDPQPRFIADKRFALMRRINEQLQMRSGHIVVLFCDEAQRLSKHALEWLRDVHDQLAHHGVRLITFLVGQPQLMEQKAQYQLSGDEQIVARFMIEQLHFRGITGAVEAATCLASYDMTRYPEDTGSTFTAFFYPDAYAAGLRLEQSAAALWNGFVNAHKVAQLAGPIELHMDYFSRAVESVLLNGPQWDSAGLVLDSAYWERAVRESGYVAAQQTVQPEV
3. MALHTVLIILSLLPMLEAQNPEHANFTIGEPITNETLSWLSDKWFFMGAAFRKLEYRQAIQTMQSEFFYLTTNLINDTIELRESQTIGDQCVYNSTHLGFQRENGTFSKYEGGVETFAHLIVLRKHGAFMLAFDLKDEKKRGLSLYAKRPDITPELQEVFQKAVTHVGMDESEIIFVDWKKDRCGQQEKKQLELGKETKKDPEEGQA

output:
["not soluble", "not soluble", "soluble"]

====

Experiment: soluble on expression in E. coli; label from the status in PepcDB or PDB records
property: soluble on expression in E. coli

1. MGSDKIHHHHHHMDYELLKTFICLAKLKNFTKTAEQLHVVQSTITSRIKHLEHTIGETLFIRTNKKVLLTGAGEIFLPYAKQLLSIQETAISRLHTLELFKDTLNIGAVHSIYDCHVQNMILKYMQRNKKIAIKITIEHSEELIQMLHDNQLDVTFTYLDIKSSQFICNPFYTDKIILVTGSQNNYNERGITNDELRSLPLLSSAILTEEFQEWFYSIFPRNYIYPLDININSNIVTFLKDGIGFSFMPESAAKNFIEEGSLIEVKLLESTPPSMKSYVLLNKQRINSEAVHSWLNEFPTLTST: not soluble
2. MGSSHHHHHHGKTIFVIVPTNEEQVAFLEALAKQDELNFDWQNPPTEPGQPVVILIPSDMVEWFLEMLKAKGIPFTVYVEEGGSENLYFQGGGGGGTCMMGLEIRPKVVSFAQEKALALRQENAASLTQHYRNVWFEQMNVMKFGSNCFTKGQLSRLFFCYPDPHWKRKNIRRRIISPGLVQEYAYWLRHGGLVYTVSDVAELEEWMVQCLDDSPLFRRLAEAELCTPEHKQVLEIVTGASEDAQRTARKGLQKHFAVHMRI: not soluble
3. DYYFDSYDHYGIHEEMLQDTVRTLSYRNAIIQNKDLFKDKIVLDVGCGTGILSMFAAKHGAKHVIGVDMSSIIEMAKELVELNGFSDKITLLRGKLEDVHLPFPKVDIIISEWMGYFLLYESMMDTVLYARDHYLVEGGLIFPDKCSIHLAGLEDSQYKDEKLNYWQDVYGFDYSPFVPLVLHEPIVDTVERNNVNTTSDKLIEFDLNTVKISDLAFKSNFKLTAKRQDMINGIVTWFDIVFPAPKGKRPVEFSTGPHAPYTHWKQTIFYFPDDLDAETGDTIEGELVCSPNEKNNRDLNIKISYKFESNGIDGNSRSRKNEGSYLMH: soluble
4. MSLKNNEKLIKWLFDTNAIRVCPKDKPFWYTSGTIGPYYINTHFLYGSEEKANKLLEFIDKEKENILKCPDRILEETMKNYQSDPIYRGLIDEMCDFIKNNIDVNEVDYISGGERRDWFFSPIIAKLLNKPHITIYKDLTTVVSSDGKTEELKELNGESVLHIADLITEASSYERAWIPAIKNNGGRIKWSVVVVDRKQGGAELLKSYDIKSFSMVDIDEGHHHHHH: soluble

Just so you know, measured soluble on expression in E. coli for `MSLNATIVDIARRANVTNITVSRTFNQPGLVKQETREKIHAIAKELNYVPNAFAQGLKRSSSQIIGIVTSSMYNPFYSELIQTVSRIARTQCYQIMLFDTDGSEEAEMEAIQALFGYKACGILLSPVRDDKNYQPAYLDLAETYRVPLILIDRDIYNRQLSGVFLNNKEIGLLAGKYLSEQPERKMLIIGGPAESEITRVRIEGIINALENKKNDVHIINGDYDFISQEAAVRDYLSSPQNQPDYIIGLNGILTLGAIAICHELKIYNNIKFFSIDEPPKAADYGLHIAGVYHDTQMLGEIAAELLFNAIKKPHNDQAVRREFFTGSLLTHEGHHHHHH` came out at soluble

Where these numbers come from: the DeepSol protein solubility set
